Where these numbers come from: patent US20190233528A1

Biological target: T1, recombinant human CD70 (AviTag, polyhistidine tag and chicken tenascin trimerization domain fused to the … (chicken; human, UniProt P10039 110-139, limits assumed)
T1 construct: domain: trimerization domain; Expressed in Expi293, purified by IMAC and SEC; Copies 3 is inferred from the trimerization domain; not shown: AviTag; polyhistidine tag
T1 sequence: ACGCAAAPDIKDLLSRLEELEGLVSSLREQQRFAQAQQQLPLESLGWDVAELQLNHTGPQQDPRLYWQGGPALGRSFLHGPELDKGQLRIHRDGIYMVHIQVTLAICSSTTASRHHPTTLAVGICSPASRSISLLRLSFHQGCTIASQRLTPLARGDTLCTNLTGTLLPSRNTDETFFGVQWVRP
Experiment: SPR (Biacore 8K, 37 C): CD70 captured via anti-AviTag antibody on C1 chip, scFv-Fc as analyte; 1:1 Langmuir fit
Measured t1/2, listed per entry.

binder: 12D7 anti-CD70 scFv-Fc fusion (Fc fusion, scFv-Fc expressed in Expi293; not shown: part of the hinge and Fc from a modified human IgG2) QVQLVESGGGVVQPGRSLRLSCVASGFTFSDYGIHWVRQAPGMGQEWVAVIWYDGSIKKYSDSVKGRFIISRDNSENTVYLQMNSLRGEDTAIYYCARDEVGTFGAFDFWGQGTKVTVSSGGGGSGGGGSGGGGSGGGGSDIQLTQSPSFLSASVGDRVSITCRASQDISSFLAWYQQKPGKAPVLLIYVASTLQSGVPSRFSGSGSGTEFTLTVSSLQPEDFATYYCQQLHVYPITFGQGTRLEIR
t1/2: 15.3 min

binder: 12D6 anti-CD70 scFv-Fc fusion (Fc fusion, scFv-Fc expressed in Expi293; not shown: part of the hinge and Fc from a modified human IgG2) QVQLQESGPGLVKPSQTLSLTCTVSGGSISSDAYYWSWIRQHPGKGLEWIGYMYYSGITYYNPSLKSRVTISVDTSKNQFSLKLSSVTAADTAVYYCARDFGWYFDLWGRGTLVTVSSGGGGSGGGGSGGGGSGGGGSDIQMTQSPSSLSASVGDRVTITCRASQDISNYLAWYQQKPGKVPKLLIYAASTLHSGVPSRFSGSGSGTDFTLTISSLQPDDFAAYYCQKYNSAPRTFGQGTKVEIK
t1/2: 5.9 min
